Would you kindly list EC50 for each of these compounds?
TARGET_OR_SYSTEM: human somatostatin receptor subtype 2 (Homo sapiens, UniProt P30874)
Construct: expressed in transfected cells
Sequence (P30874 whole entry): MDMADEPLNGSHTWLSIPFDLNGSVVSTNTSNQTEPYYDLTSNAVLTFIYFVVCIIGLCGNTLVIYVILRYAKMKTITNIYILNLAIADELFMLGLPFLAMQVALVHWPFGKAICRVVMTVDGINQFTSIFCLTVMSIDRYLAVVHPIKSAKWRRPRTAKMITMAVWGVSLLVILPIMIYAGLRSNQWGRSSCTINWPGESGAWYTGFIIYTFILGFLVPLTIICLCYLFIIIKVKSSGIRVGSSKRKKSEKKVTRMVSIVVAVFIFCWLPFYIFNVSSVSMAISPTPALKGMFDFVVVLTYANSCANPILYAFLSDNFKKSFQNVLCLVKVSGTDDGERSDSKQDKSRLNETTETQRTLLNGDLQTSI
ASSAY_METHOD_TEXT: cAMP functional assay for SSTR2 agonists
Assay type: cell-based
EXPERIMENTAL_PARAMETERS: inhibition of cAMP activities via human SST2 receptor (SSTR2), CHO-K1 cells; read-out: EC50

I am curious: what EC50 value has been reported for Cc1cc(F)cc(-c2cnc(N)c(-c3nc4ccc(F)c(F)c4[nH]3)c2N2CCC(N)CC2)c1 ?
< 10 nM

Next compound: Cc1cc(F)cc(-c2cnc(Cl)c(-c3nc4cc(F)ccc4[nH]3)c2N2CCC(N)CC2)c1
< 10 nM

Next compound: Nc1ncc(-c2cc(F)cc(F)c2)c(N2CCC(N)CC2)c1-c1nc2cc(OC(F)(F)F)ccc2[nH]1
< 10 nM

Next compound: COc1ccc2c(Cl)c(-c3nncc(-c4cc(C)cc(F)c4)c3N3CCC(N)CC3)[nH]c2c1
< 10 nM

Next compound: C#Cc1ccc2[nH]c(-c3c(N)ncc(-c4cc(C)cc(F)c4)c3N3CCC(N)CC3)nc2c1
< 10 nM

Next compound: CNc1ncc(-c2cc(C)cc(F)c2)c(N2CCC(NC)CC2)c1-c1nc2cc(Cl)ccc2[nH]1
< 10 nM

Next compound: Cc1cc(F)cc(-c2cnc(N)c(C=NOC(C)(C)C)c2N2CCC(N)CC2)c1
< 10 nM

Next compound: CCNc1ncc(-c2cc(C)cc(F)c2)c(N2CCC(N)CC2)c1-c1nc2cc(F)c(F)cc2[nH]1
< 10 nM

Next compound: Cc1cc(F)cc(-c2cnc(N)c(-c3nc4cc(F)cc(OCC#N)c4[nH]3)c2N2CCC(N)CC2)c1
< 10 nM

Next compound: Cc1cc(F)cc(-c2cnc(N)c(-c3nc4cc(Cl)cc(F)c4[nH]3)c2N2CCC(N)CC2)c1
< 10 nM

Next compound: COc1cc(F)cc2[nH]c(-c3c(N)ncc(-c4cc(C)cc(C)c4)c3N3CCC(N)CC3)nc12
< 10 nM

Next compound: COc1ncc(-c2cc(C)cc(F)c2)c(N2CCC(N)CC2)c1-c1nc2cc(F)ccc2[nH]1
< 10 nM

Next compound: C#Cc1cc(F)c2[nH]c(-c3c(N)ncc(-c4cc(C)cc(F)c4)c3N3CCC(N)CC3)nc2c1
< 10 nM

Next compound: CNc1ncc(-c2cc(C)cc(F)c2)c(N2CCC(N)CC2)c1-c1nc2ccc(C#N)cc2[nH]1
< 10 nM

Next compound: Cc1cc(F)cc(-c2cnnc(-c3cc4ccc(F)cc4[nH]3)c2N2CCC(N)CC2)c1
< 10 nM

Next compound: COc1ncc(-c2cc(C)cc(F)c2)c(N2CCC(N)CC2)c1-c1nc2cc(F)cc(F)c2[nH]1
< 10 nM

Next compound: CCn1c(-c2c(N)ncc(-c3cc(C)cc(F)c3)c2N2CCC(N)CC2)nc2cc(F)c(F)cc21
< 10 nM

Next compound: Cc1cc(F)cc(-c2cnnc(-c3[nH]c4cc(C#N)ccc4c3Cl)c2N2CCC(N)CC2)c1
< 10 nM

Next compound: CNC1CCN(c2c(-c3cc(C)cc(F)c3)cnc(N)c2-c2nc3cc(F)cc(OC)c3[nH]2)CC1
< 10 nM

Next compound: CONC(=O)c1cccc2nc(-c3c(N)ncc(-c4cc(C)cc(F)c4)c3N3CCC(N)CC3)[nH]c12
10 to 100 nM

Next compound: Cc1cc(F)cc(-c2cnc(N)c(-c3nc4cc(Cl)ccc4[nH]3)c2N2CCC(N)CC2)c1
< 10 nM

Next compound: C=Cn1c(-c2c(N)ncc(-c3cc(C)cc(F)c3)c2N2CCC(N)CC2)nc2cc(F)c(F)cc21
< 10 nM

Next compound: Nc1ncc(-c2cc(F)cc(F)c2)c(N2CCC(N)CC2)c1-c1nc2cc(Cl)ccc2[nH]1
< 10 nM

Next compound: COc1cc(F)c2nc(-c3c(N)ncc(-c4cc(C)cc(F)c4)c3N3CCC(N)CC3)[nH]c2c1
< 10 nM

Next compound: N#CCOc1cc(F)cc2nc(-c3c(N)ncc(-c4cc(F)cc(Cl)c4)c3N3CCC(N)CC3)[nH]c12
< 10 nM

Next compound: Cc1cc(Cl)cc(-c2cnc(N)c(C=NOC(C)(C)C)c2N2CCC(N)CC2)c1
< 10 nM

Next compound: COc1ncc(-c2cc(C)cc(F)c2)c(N2CCC(N)CC2)c1-c1nc2cc(Cl)ncc2[nH]1
< 10 nM

Next compound: COc1cc(F)cc2nc(-c3c(N)ncc(-c4ccc(F)c(C)c4)c3N3CCC(N)CC3)[nH]c12
< 10 nM

Next compound: COC(=O)c1ccc2cc(-c3nncc(-c4cc(C)cc(F)c4)c3N3CCC(N)CC3)[nH]c2c1
< 10 nM

Next compound: Cc1cc(F)cc(-c2cnc(N)c(-c3nc4ncccc4[nH]3)c2N2CCC(N)CC2)c1
< 10 nM

----------
TARGET_OR_SYSTEM: human somatostatin receptor subtype 2 (Homo sapiens, UniProt P30874)
Construct: expressed in transfected cells
ASSAY_METHOD_TEXT: cAMP functional assay for SSTR2 agonists
Format: cell-based
EXPERIMENTAL_PARAMETERS: cAMP inhibition, Table C; read-out: hSST2 (EC50)
Would you kindly list pEC50 for each of these molecules?
A value of pEC50 is the negative decimal logarithm of a concentration given in moles per litre.

// lookup pEC50 | system=human somatostatin receptor subtype 2 (Homo sapiens, UniProt P30874) | key= Cc1cc(F)cc(-c2cnc(N)c(-c3nc4cc(F)ccc4[nH]3)c2N2CCC(N)CC2)c1 [Compound 1-6]
10.22

Next molecule: Cc1cc(F)cc(-c2cnc(N)c(-c3nc4cc(Cl)ccc4[nH]3)c2N2CCC(N)CC2)c1 [Compound 1-1]
10.52

Next molecule: Cc1cc(F)cc(-c2cnc(N)c(-c3nc4cc(F)cc(F)c4[nH]3)c2N2CCC(N)CC2)c1 [Compound 1-2]
10.30

Next molecule: Cc1cc(F)cc(-c2cnc(N)c(-c3nc4cccc(F)c4[nH]3)c2N2CCC(N)CC2)c1 [Compound 1-11]
9.57

Next molecule: Cc1cc(F)cc(-c2cnc(N)c(-c3nc4cc(C#N)ccc4[nH]3)c2N2CCC(N)CC2)c1 [Compound 1-12]
10.22

Next molecule: Cc1cc(F)cc(-c2cncc(-c3nc4cccc(F)c4[nH]3)c2N2CCC(N)CC2)c1 [R^1=H, R^5=H, R^6=H, R^7=7-F, reference compound]
9.37

Next molecule: CNc1ncc(-c2cc(C)cc(F)c2)c(N2CCC(N)CC2)c1-c1nc2cc(F)cc(F)c2[nH]1 [Compound 1-48]
9.74

Next molecule: Cc1cc(F)cc(-c2cncc(-c3nc4cc(C#N)ccc4[nH]3)c2N2CCC(N)CC2)c1 [R^1=H, R^5=H, R^6=5-CN, R^7=H, reference compound]
9.89

----------
TARGET_OR_SYSTEM: UniProt P31391
Sequence (P31391 whole entry): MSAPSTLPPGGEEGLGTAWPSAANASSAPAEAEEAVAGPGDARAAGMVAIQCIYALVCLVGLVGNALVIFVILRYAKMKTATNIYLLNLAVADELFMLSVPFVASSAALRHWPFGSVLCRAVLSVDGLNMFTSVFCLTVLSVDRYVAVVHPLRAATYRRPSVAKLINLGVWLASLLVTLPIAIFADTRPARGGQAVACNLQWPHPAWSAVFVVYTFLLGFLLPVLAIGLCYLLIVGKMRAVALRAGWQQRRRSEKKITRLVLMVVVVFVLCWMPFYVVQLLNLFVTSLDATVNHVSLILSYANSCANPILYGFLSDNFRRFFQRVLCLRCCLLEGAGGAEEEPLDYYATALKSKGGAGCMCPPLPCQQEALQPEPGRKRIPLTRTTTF
ASSAY_METHOD_TEXT: inhibition of cAMP via hSSTR4
EXPERIMENTAL_PARAMETERS: cAMP inhibition, Table C; read-out: hSST4 (EC50)
Would you kindly list pEC50 for each of these compounds?
A value of pEC50 is the negative decimal logarithm of a concentration given in moles per litre.

I am curious: what pEC50 value has been reported for Cc1cc(F)cc(-c2cncc(-c3nc4cc(F)ccc4[nH]3)c2N2CCC(N)CC2)c1 [R^1=H, R^5=H, R^6=5-F, R^7=H, reference compound] ?
9.92

Next compound: CNc1ncc(-c2cc(C)cc(F)c2)c(N2CCC(N)CC2)c1-c1nc2cc(F)cc(F)c2[nH]1 [Compound 1-48]
7.82

Next compound: Cc1cc(F)cc(-c2cnc(N)c(-c3nc4cc(F)ccc4[nH]3)c2N2CCC(N)CC2)c1 [Compound 1-6]
9.04

Next compound: Cc1cc(F)cc(-c2cnc(N)c(-c3nc4cc(C#N)ccc4[nH]3)c2N2CCC(N)CC2)c1 [Compound 1-12]
7.85

Next compound: Cc1cc(F)cc(-c2cncc(-c3nc4cccc(F)c4[nH]3)c2N2CCC(N)CC2)c1 [R^1=H, R^5=H, R^6=H, R^7=7-F, reference compound]
10.05

Next compound: Cc1cc(F)cc(-c2cnc(N)c(-c3nc4cc(Cl)ccc4[nH]3)c2N2CCC(N)CC2)c1 [Compound 1-1]
9.15

Next compound: Cc1cc(F)cc(-c2cnc(N)c(-c3nc4cccc(F)c4[nH]3)c2N2CCC(N)CC2)c1 [Compound 1-11]
9.15

Next compound: Cc1cc(F)cc(-c2cnc(N)c(-c3nc4cc(F)cc(F)c4[nH]3)c2N2CCC(N)CC2)c1 [Compound 1-2]
8.89

Next compound: Cc1cc(F)cc(-c2cncc(-c3nc4cc(C#N)ccc4[nH]3)c2N2CCC(N)CC2)c1 [R^1=H, R^5=H, R^6=5-CN, R^7=H, reference compound]
8.92
